Can you tell me inhibition at 50 µM for the items I'm about to list?
Measured Target: hLAT1/4F2hc (Homo sapiens, UniProt Q01650)
Construct: Invitrogen (host cells)
Sequence (Q01650 whole entry): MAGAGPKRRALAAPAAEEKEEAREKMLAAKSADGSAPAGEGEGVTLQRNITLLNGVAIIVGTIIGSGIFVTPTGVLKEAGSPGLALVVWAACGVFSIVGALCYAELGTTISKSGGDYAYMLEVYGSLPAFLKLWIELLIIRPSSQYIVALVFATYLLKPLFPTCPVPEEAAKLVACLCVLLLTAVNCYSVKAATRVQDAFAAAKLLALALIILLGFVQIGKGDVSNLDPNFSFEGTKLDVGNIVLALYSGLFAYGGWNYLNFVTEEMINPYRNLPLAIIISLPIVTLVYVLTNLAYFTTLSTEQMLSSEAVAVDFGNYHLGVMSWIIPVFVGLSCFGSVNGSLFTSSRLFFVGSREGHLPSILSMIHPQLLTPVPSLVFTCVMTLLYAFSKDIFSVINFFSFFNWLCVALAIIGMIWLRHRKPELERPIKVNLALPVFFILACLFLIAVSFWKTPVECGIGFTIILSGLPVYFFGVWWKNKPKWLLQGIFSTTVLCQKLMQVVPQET
Sequence (P08195 102-630 partner): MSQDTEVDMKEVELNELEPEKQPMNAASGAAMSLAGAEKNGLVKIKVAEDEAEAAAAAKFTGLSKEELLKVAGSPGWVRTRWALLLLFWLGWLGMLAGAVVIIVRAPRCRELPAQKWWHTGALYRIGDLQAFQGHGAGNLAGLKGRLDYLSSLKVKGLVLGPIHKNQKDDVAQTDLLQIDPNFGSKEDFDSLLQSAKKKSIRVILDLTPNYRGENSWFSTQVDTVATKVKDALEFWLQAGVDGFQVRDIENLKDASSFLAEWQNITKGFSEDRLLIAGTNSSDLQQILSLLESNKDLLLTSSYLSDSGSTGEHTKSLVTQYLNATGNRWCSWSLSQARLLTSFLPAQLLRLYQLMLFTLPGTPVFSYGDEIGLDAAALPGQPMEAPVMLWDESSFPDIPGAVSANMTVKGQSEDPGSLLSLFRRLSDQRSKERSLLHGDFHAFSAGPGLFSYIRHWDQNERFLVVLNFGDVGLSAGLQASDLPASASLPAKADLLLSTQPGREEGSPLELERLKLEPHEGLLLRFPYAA
Measurement Protocol: cis-inhibition of [14C]-L-leucine uptake in HEK-hLAT1 cells
Format: cell-based
Condition Label: HEK-hLAT1 cells; 50 μM compound; compounds 1-12; read-out: [14C]-L-Leucine uptake inhibition % (50μM)
Protocol: In the following experiments, the MCF-7, HEK-hLAT1, and HEK-MOCK cells were cultured, seeded, and preincubated as described above. […] The cells were then lysed with 250 μL of 0.1 M sodium hydroxide, the lysate was mixed with 1.0 mL of Emulsifier safe cocktail (PerkinElmer, Waltham, MA, USA), and the radioactivity was measured with a liquid scintillation counter (MicroBeta^2 counter, PerkinElmer, Waltham, MA, USA). […]
Numbers only, in %.

Worked cases, inhibition at 50 µM given:
>>> value_measured("COc1ccc2cc(C(C)C(=O)Nc3cccc(C[C@H](N)C(=O)O)c3)ccc2c1 (some centres unmarked)")
28
>>> value_measured("CC(C)Cc1ccc(C(C)C(=O)Nc2cccc(C[C@H](N)C(=O)O)c2)cc1 (some centres unmarked)")
20
>>> value_measured("CNC(=O)COc1ccc(-c2c(C#N)c(NC(=O)c3cccc(C[C@H](N)C(=O)O)c3)n3c(nc4ccccc43)c2C#N)cc1")
29
>>> value_measured("CCCN(CCC)S(=O)(=O)c1ccc(C(=O)Nc2cccc(C[C@H](N)C(=O)O)c2)cc1")
10

Then there is this compound:
[Q] Query inhibition at 50 µM on hLAT1/4F2hc (Homo sapiens, UniProt Q01650) for N[C@@H](Cc1cccc(C(=O)NCCc2ccc(O)c(O)c2)c1)C(=O)O
[A] 4.27
